Molecular target: T1, Axl (Homo sapiens, UniProt P30530)
T1 sequence (P30530 26-451 limits assumed): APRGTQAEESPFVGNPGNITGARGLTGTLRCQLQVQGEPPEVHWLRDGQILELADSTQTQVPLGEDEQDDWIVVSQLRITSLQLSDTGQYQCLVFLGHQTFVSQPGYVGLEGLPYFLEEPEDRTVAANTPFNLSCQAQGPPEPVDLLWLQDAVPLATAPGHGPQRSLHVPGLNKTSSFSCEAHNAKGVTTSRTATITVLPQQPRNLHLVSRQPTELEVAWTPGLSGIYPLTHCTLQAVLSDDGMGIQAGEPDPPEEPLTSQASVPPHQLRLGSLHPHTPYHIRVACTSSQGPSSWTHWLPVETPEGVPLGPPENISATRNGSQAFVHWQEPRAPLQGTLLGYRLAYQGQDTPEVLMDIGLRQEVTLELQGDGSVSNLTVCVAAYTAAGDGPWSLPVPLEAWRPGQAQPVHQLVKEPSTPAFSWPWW
Assay: Affinity ELISA of CPE mutant antibodies for binding to Axl at pH 6.0 over pH 7.4
Settings: heavy chain variable region mutants; 1:3 dilution
Mark Met for reported Affinity ELISA CPE mutant ratio (1:3, pH 6.0/7.4) of 3 or greater; mark Not met for anything smaller.

molecule="HC-E102A (antibody, V domains shown) VH: EVQLVQSGAEVKKPGATVKISCKVSGYSFTGHTMNWIRQPPGKGLEWIGLIKPSNGGTSYNQKFKGRVTISADKSISTAYLQWSSLKASDTAMYYCAHGHYASYFAMDYWGQGTLVTVSS VL: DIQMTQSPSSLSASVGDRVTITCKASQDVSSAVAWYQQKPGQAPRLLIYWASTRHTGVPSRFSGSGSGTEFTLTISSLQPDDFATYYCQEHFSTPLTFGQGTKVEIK" category="Not met"
molecule="HC-S103M (antibody, V domains shown) VH: EVQLVQSGAEVKKPGATVKISCKVSGYSFTGHTMNWIRQPPGKGLEWIGLIKPSNGGTSYNQKFKGRVTISADKSISTAYLQWSSLKASDTAMYYCAHGHYEMYFAMDYWGQGTLVTVSS VL: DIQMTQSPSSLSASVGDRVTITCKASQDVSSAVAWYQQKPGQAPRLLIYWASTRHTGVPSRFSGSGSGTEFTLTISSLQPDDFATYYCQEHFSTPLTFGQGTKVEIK" category="Not met"
molecule="HC-H100E (antibody, V domains shown) VH: EVQLVQSGAEVKKPGATVKISCKVSGYSFTGHTMNWIRQPPGKGLEWIGLIKPSNGGTSYNQKFKGRVTISADKSISTAYLQWSSLKASDTAMYYCAHGEYESYFAMDYWGQGTLVTVSS VL: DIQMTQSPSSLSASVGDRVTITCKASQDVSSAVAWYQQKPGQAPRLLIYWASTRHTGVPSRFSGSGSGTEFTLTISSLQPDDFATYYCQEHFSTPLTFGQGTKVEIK" category="Not met"
molecule="HC-W110D (antibody, V domains shown) VH: EVQLVQSGAEVKKPGATVKISCKVSGYSFTGHTMNWIRQPPGKGLEWIGLIKPSNGGTSYNQKFKGRVTISADKSISTAYLQWSSLKASDTAMYYCAHGHYESYFAMDYDGQGTLVTVSS VL: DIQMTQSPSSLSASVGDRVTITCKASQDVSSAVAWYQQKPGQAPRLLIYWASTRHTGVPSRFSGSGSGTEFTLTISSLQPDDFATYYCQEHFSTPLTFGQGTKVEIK" category=Met
molecule="HC-H100R (antibody, V domains shown) VH: EVQLVQSGAEVKKPGATVKISCKVSGYSFTGHTMNWIRQPPGKGLEWIGLIKPSNGGTSYNQKFKGRVTISADKSISTAYLQWSSLKASDTAMYYCAHGRYESYFAMDYWGQGTLVTVSS VL: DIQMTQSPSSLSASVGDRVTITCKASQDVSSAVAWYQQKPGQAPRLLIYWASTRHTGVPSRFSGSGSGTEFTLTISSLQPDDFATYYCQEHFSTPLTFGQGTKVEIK" category="Not met"
molecule="HC-W110P (antibody, V domains shown) VH: EVQLVQSGAEVKKPGATVKISCKVSGYSFTGHTMNWIRQPPGKGLEWIGLIKPSNGGTSYNQKFKGRVTISADKSISTAYLQWSSLKASDTAMYYCAHGHYESYFAMDYPGQGTLVTVSS VL: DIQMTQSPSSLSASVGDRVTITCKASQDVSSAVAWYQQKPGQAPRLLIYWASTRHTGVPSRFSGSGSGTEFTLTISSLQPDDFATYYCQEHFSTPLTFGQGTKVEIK" category=Met
molecule="HC-E102I (antibody, V domains shown) VH: EVQLVQSGAEVKKPGATVKISCKVSGYSFTGHTMNWIRQPPGKGLEWIGLIKPSNGGTSYNQKFKGRVTISADKSISTAYLQWSSLKASDTAMYYCAHGHYISYFAMDYWGQGTLVTVSS VL: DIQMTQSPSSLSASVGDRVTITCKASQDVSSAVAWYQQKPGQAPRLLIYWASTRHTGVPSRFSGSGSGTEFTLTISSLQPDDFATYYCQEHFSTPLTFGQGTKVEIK" category="Not met"
molecule="HC-E102L (antibody, V domains shown) VH: EVQLVQSGAEVKKPGATVKISCKVSGYSFTGHTMNWIRQPPGKGLEWIGLIKPSNGGTSYNQKFKGRVTISADKSISTAYLQWSSLKASDTAMYYCAHGHYLSYFAMDYWGQGTLVTVSS VL: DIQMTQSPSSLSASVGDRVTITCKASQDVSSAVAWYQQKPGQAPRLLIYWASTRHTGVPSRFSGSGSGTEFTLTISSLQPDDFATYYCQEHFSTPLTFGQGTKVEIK" category=Met
molecule="HC-E102F (antibody, V domains shown) VH: EVQLVQSGAEVKKPGATVKISCKVSGYSFTGHTMNWIRQPPGKGLEWIGLIKPSNGGTSYNQKFKGRVTISADKSISTAYLQWSSLKASDTAMYYCAHGHYFSYFAMDYWGQGTLVTVSS VL: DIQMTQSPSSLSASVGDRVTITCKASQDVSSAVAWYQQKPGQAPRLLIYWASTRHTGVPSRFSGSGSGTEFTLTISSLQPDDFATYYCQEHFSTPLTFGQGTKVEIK" category="Not met"
molecule="HC-W110H (antibody, V domains shown) VH: EVQLVQSGAEVKKPGATVKISCKVSGYSFTGHTMNWIRQPPGKGLEWIGLIKPSNGGTSYNQKFKGRVTISADKSISTAYLQWSSLKASDTAMYYCAHGHYESYFAMDYHGQGTLVTVSS VL: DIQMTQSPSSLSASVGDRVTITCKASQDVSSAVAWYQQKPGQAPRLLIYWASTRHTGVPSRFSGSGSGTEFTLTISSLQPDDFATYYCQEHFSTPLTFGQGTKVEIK" category=Met
